The measured values listed here are drawn from patent US20160159789A1.

measuredOn: human full-length MKNK1 (Homo sapiens, UniProt Q9BUB5, T385D)
Sequence (Q9BUB5 1-424 isoform Q9BUB5-2 T344D): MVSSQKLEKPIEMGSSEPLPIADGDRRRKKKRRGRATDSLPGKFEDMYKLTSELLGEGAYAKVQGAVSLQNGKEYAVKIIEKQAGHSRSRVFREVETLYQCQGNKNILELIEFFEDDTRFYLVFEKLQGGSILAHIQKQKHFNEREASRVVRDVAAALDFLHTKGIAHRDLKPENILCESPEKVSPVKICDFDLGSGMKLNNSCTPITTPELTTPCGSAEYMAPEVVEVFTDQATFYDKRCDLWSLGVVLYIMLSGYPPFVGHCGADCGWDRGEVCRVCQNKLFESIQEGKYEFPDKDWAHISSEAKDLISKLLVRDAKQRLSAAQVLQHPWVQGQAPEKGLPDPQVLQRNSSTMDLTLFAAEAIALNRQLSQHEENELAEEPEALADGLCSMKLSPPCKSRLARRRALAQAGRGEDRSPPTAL
protocolNotes: MKNK1 kinase high ATP assay (TR-FRET)
runParameters: high ATP (2 mM final), 15 min preincubation with enzyme, GST-MKNK1 (T344D)
observable: IC50 (nM)
The reply should contain only the number, in nM.

{"columns": ["smilesCode", "measuredOn", "observable", "outputUnit", "recordedResult"],
 "data": [
  ["O=C([C@H]1CCc2c(sc3ncnc(Nc4cc5cn[nH]c5cn4)c23)C1)N1CCOCC1", "human full-length MKNK1 (Homo sapiens, UniProt Q9BUB5, T385D)", "IC50", "nM", 7.1]
]}

# lookup: IC50 of "CN(C)CCNC(=O)c1[nH]c2ncnc(Nc3cc4cn[nH]c4cn3)c2c1Br" 14.5

Could you tell me which IC50 is on file for "N#CC1CN(C(=O)[C@H]2CCc3c(sc4ncnc(Nc5cnc6[nH]ncc6c5)c34)C2)C1" ? 14.5
